target desc: Histamine H2 receptor (Cavia porcellus)
assay method text: Potency relative to histamine calculated from mean pD2 value in guinea pig right atrium.
Assay type: functional, tissue-based
measurement conditions: Cardiac atrium
Consider the cut-off 50. If the recorded Relative potency is strictly smaller, the label is 1 (yes); if not, the label is 0 (no).

• N=C(NCCCc1c[nH]cn1)NCCC(c1ccc(F)cc1)c1cccnc1 (centres undefined) = 0 (no)
• N/C(=N\CCC(c1ccc(O)cc1)c1ccccn1)NCCCc1c[nH]cn1 (centres undefined) = 1 (yes)
• CN(CCC(c1ccc(F)cc1)c1ccccn1)C(=N)NCCCc1c[nH]cn1 (centres undefined) = 1 (yes)
• N=C(NCCCc1c[nH]cn1)NCCC(c1ccccn1)c1ccccn1 = 1 (yes)
• N=C(NCCCc1c[nH]cn1)NCCC(c1ccc(F)cc1)c1ccccn1 (centres undefined) = 0 (no)
• N=C(NCCCc1c[nH]cn1)NCCC(c1cccc(C(F)(F)F)c1)c1ccccn1 (centres undefined) = 1 (yes)
• N=C(NCCCc1c[nH]cn1)NCCC(c1cccc(F)c1)c1ccccn1 (centres undefined) = 0 (no)
• N=C(NCCCc1c[nH]cn1)NCCCC(c1ccccc1)c1ccccn1 (centres undefined) = 1 (yes)
• N=C(NCCCc1c[nH]cn1)NCCCC(c1ccc(F)cc1)c1ccccn1 (centres undefined) = 1 (yes)
• N=C(NCCCc1c[nH]cn1)NCCC(c1ccccn1)c1ccc(Cl)cc1Cl (centres undefined) = 0 (no)
• N=C(NCCCc1c[nH]cn1)NCCC(Cc1ccccc1)c1ccc(F)cc1 (centres undefined) = 1 (yes)
• N=C(NCCCc1c[nH]cn1)NCCC(c1ccc(Cl)c(Cl)c1)c1ccccn1 (centres undefined) = 0 (no)
• N=C(NCCCc1c[nH]cn1)NCCC(c1ccc(C(F)(F)F)cc1)c1ccccn1 (centres undefined) = 0 (no)
